Read-out: Tumor necrosis factor receptor 1 (TNFRSF1A), TNFRSF1A (gene 7132)
Assay: LTEA_HepaRG_TNFRSF1A: Life Technologies and Expression Analysis (LTEA) Assay for Tumor necrosis factor receptor 1 (TNFRSF1A) using HepaRG (AID 2283535)
Settings: mRNA level, 48 h; actives raise or lower the signal
Description: LTEA_HepaRG is a cell based, multiplexed-readout assay that uses HepaRG, a human liver cell line, with measurements taken at 48 hours after chemical dosing on a 96-well plate.LTEA_HepaRG_TNFRSF1A is one of 102 assay component(s) measured in the LTEA HepaRG cell culture assay. It is a marker of Cell proliferation, survival, death.Data from the assay component LTEA_HepaRG_TNFRSF1A was analyzed into 1 endpoint. […]
Activity calls are given as the source filed them. The calls were made as follows: active = hit-call score of the fitted dose curve at least 0.9, where 1 is the maximum; inactive = score below 0.9.
Result category, one only: 1 for active, 0 for inactive

*Q* Per the records of this test, what outcome belongs to "COc1ccc(OC(F)(F)F)cc1CN[C@H]1CCCN[C@H]1c1ccccc1" ?
*A* 1

*Q* Per the records of this test, what outcome belongs to "Oc1ccc(O)cc1" ?
*A* 0

*Q* Per the records of this test, what outcome belongs to "S=c1[nH]c2ccccc2s1" ?
*A* 0

*Q* Per the records of this test, what outcome belongs to "O=Cc1ccccc1C=O" ?
*A* 0

*Q* Per the records of this test, what outcome belongs to CCCCC(CC)COP(=O)(OCC(CC)CCCC)OCC(CC)CCCC (stereo not given) ?
*A* 0

*Q* Per the records of this test, what outcome belongs to "O=C(O)c1cccnc1" ?
*A* 0

*Q* Per the records of this test, what outcome belongs to "CC(C)OC(=O)C(C)(C)Oc1ccc(C(=O)c2ccc(Cl)cc2)cc1" ?
*A* 0

*Q* Per the records of this test, what outcome belongs to "O=C(O)CN(CC(=O)O)CC(=O)O" ?
*A* 0

*Q* Per the records of this test, what outcome belongs to "CC1(C)C(=O)NC(=O)N1CO" ?
*A* 0

*Q* Per the records of this test, what outcome belongs to "CN(C)CCCN(C)CCCN(C)C" ?
*A* 0

*Q* Per the records of this test, what outcome belongs to "NC(=Nc1ccccc1)Nc1ccccc1" ?
*A* 0

*Q* Per the records of this test, what outcome belongs to CC(C)NCC(O)c1ccc(O)c(O)c1 (stereo not given) ?
*A* 0

*Q* Per the records of this test, what outcome belongs to "CC(=O)O" ?
*A* 0

*Q* Per the records of this test, what outcome belongs to "Cn1cnc2c1c(=O)[nH]c(=O)n2C" ?
*A* 0

*Q* Per the records of this test, what outcome belongs to "Cc1occc(=O)c1O" ?
*A* 0
